Values were extracted from ChEMBL document CHEMBL1921780.

Consider the following compounds; for each one, report its selectivity ratio.
- Assay Explanation: Selectivity index, ratio of IC50 for rat L6 cells to IC50 for Trypanosoma brucei rhodesiense STIB 900
- Type: toxicity, cell-based
- Condition Info: L6 cells versus Trypanosoma brucei rhodesiense STIB 900, read-out: Ratio IC50
One number for each entry.

Cl.O=[N+]([O-])c1ncn(CCCN(Cc2ccc(C(F)(F)F)cc2)Cc2ccc(C(F)(F)F)cc2)n1 | 339
Cl.O=[N+]([O-])c1ncn(CCCCNc2ccnc3cccnc23)n1 | 220
O=[N+]([O-])c1nccn1CCCCNc1ccnc2cc(Cl)ccc12 | 36
Cl.O=[N+]([O-])c1ncn(CCCNCc2ccc3ccc(Cl)cc3n2)n1 | 136
O=C1C(Cl)=C(NCCCn2cnc([N+](=O)[O-])n2)C(=O)c2ccccc21 | 8
Cl.O=[N+]([O-])c1ncn(CCCNCc2ccc(C(F)(F)F)cc2)n1 | 34

Now turn to the next compound.
### Prompt // selectivity ratio lookup, key: Cc1nc(NCCCn2ccnc2[N+](=O)[O-])c2ccccc2n1
### Response 9

* * *

- Assay Explanation: Selectivity index, ratio of IC50 for rat L6 cells to IC50 for Trypanosoma brucei rhodesiense STIB 900
- Type: toxicity, cell-based
- Condition Info: L6 cells versus Trypanosoma brucei rhodesiense STIB 900, read-out: Ratio IC50
Reported Metric: selectivity ratio
Numbers only.

Previously resolved entries follow.
O=[N+]([O-])c1ncn(CCCN(Cc2cc(C(F)(F)F)cc(C(F)(F)F)c2)Cc2cc(C(F)(F)F)cc(C(F)(F)F)c2)n1 | 10
O=C1C(Cl)=C(NCCCn2ccnc2[N+](=O)[O-])C(=O)c2ccccc21 | 6
Cl.O=[N+]([O-])c1ncn(CCCCNc2ccnc3cc(Cl)ccc23)n1 | 708
Cl.O=[N+]([O-])c1ncn(CCCCNc2ccnc3cc(C(F)(F)F)ccc23)n1 | 973
Cl.O=[N+]([O-])c1ncn(CCCNc2ccnc3cc(Cl)ccc23)n1 | 463

Would you be so kind as to report selectivity ratio for each listed record?
1. Cl.Cl.O=[N+]([O-])c1ncn(CCCN2CCN(c3ccc(C(F)(F)F)cc3)CC2)n1
2. O=[N+]([O-])c1nccn1CCCNc1ccnc2cc(Cl)ccc12

### Response
10
18

Each of the following entries comes with a recorded value; kindly state selectivity ratio for each.
1. O=[N+]([O-])c1nccn1CCCNCc1cc(C(F)(F)F)cc(C(F)(F)F)c1
2. O=[N+]([O-])c1nccn1CCCCNc1nc(-c2ccccc2)nc(Cl)c1-c1ccccc1
3. O=[N+]([O-])c1nccn1CCCN(Cc1ccc2cc(Br)ccc2n1)Cc1ccc2cc(Br)ccc2n1
4. Cl.O=[N+]([O-])c1ncn(CCCNc2c3ccccc3nc3ccccc23)n1
5. COc1cc2nc(Cl)nc(NCCCCn3ccnc3[N+](=O)[O-])c2cc1OC
6. Cl.O=[N+]([O-])c1ncn(CCCNc2ccnc3cccnc23)n1
7. Cl.O=[N+]([O-])c1ncn(CCCCNc2nc(-c3ccccc3)nc3ccccc23)n1

### Response
10
1
7
34
7
60
137

Take each entry in turn and give its selectivity ratio.
1. Cl.O=[N+]([O-])c1ncn(CCCN(Cc2ccc3ccc(Cl)cc3n2)Cc2ccc3ccc(Cl)cc3n2)n1
2. Cl.Cl.O=[N+]([O-])c1ncn(CCCCN2CCN(Cc3ccc(C(F)(F)F)cc3)CC2)n1
3. COc1ccc2nc3cc(Cl)ccc3c(NCCCCn3cnc([N+](=O)[O-])n3)c2c1

### Response
1. 78
2. 99
3. 74

* * *

Task for the reader: assign each of the following compounds its reported selectivity ratio.
- Assay Explanation: Selectivity index, ratio of IC50 for rat L6 cells to IC50 for Leishmania donovani MHOM-ET-67/L82
- Format: toxicity, cell-based
- Condition Info: L6 cells versus Leishmania donovani MHOM-ET-67/L82, read-out: Ratio IC50
Numbers only.

For orientation, consider the following solved cases.
Cl.O=[N+]([O-])c1ncn(CCCCNc2nc(-c3ccccc3)nc3ccccc23)n1 | 9
O=[N+]([O-])c1nccn1CCCN(Cc1ccc2cc(Br)ccc2n1)Cc1ccc2cc(Br)ccc2n1 | 5
Cl.O=[N+]([O-])c1nccn1CCCNc1nc(-c2ccccc2)nc2ccccc12 | 9

### Prompt Please report the recorded selectivity ratio for O=[N+]([O-])c1ncn(CCCN(Cc2cc(C(F)(F)F)cc(C(F)(F)F)c2)Cc2cc(C(F)(F)F)cc(C(F)(F)F)c2)n1 .
### Response 16

* * *

- Assay Explanation: Selectivity index, ratio of IC50 for rat L6 cells to IC50 for Leishmania donovani MHOM-ET-67/L82
- Assay type: toxicity, cell-based
- Condition Info: L6 cells versus Leishmania donovani MHOM-ET-67/L82, read-out: Ratio IC50
So I've got a bunch of molecules here, and I need their selectivity ratio values.
One number for each entry.

Cl.O=[N+]([O-])c1ncn(CCCCNc2ccnc3cc(Cl)ccc23)n1 | 2
Cl.O=[N+]([O-])c1ncn(CCCNc2ccnc3cccnc23)n1 | 1

I need selectivity ratio for every entry listed below, if you could help.
1. Cl.O=[N+]([O-])c1ncn(CCCNCc2cc(C(F)(F)F)cc(C(F)(F)F)c2)n1
2. Cl.O=[N+]([O-])c1ncn(CCCCNc2ccnc3cc(C(F)(F)F)ccc23)n1

### Response
12
1

* * *

- Assay Explanation: Selectivity index, ratio of IC50 for rat L6 cells to IC50 for Leishmania donovani MHOM-ET-67/L82
- Assay type: toxicity, cell-based
- Condition Info: L6 cells versus Leishmania donovani MHOM-ET-67/L82, read-out: Ratio IC50
Binary classification by selectivity ratio, with 5 as an inclusive lower bound for rule met; all other cases are rule not met.

Would you please look over these solved cases?
Cc1nc(C(F)(F)F)nc(NCCCn2ccnc2[N+](=O)[O-])c1C | rule met
Cl.Cl.O=[N+]([O-])c1ncn(CCCN2CCN(c3ccc(C(F)(F)F)cc3)CC2)n1 | rule not met
O=[N+]([O-])c1nccn1CCCNCc1ccc2cc(Br)ccc2n1 | rule not met

### Prompt hey, is selectivity ratio for this one >= 5? Cl.O=[N+]([O-])c1ncn(CCCNc2ccnc3cc(Cl)ccc23)n1
### Response rule not met

### Prompt Can you check Cl.O=[N+]([O-])c1ncn(CCCNCc2ccc3ccc(Cl)cc3n2)n1 next?
### Response rule not met

### Prompt And then O=C1C(Cl)=C(NCCCn2ccnc2[N+](=O)[O-])C(=O)c2ccccc21 , what is it?
### Response rule met

### Prompt Repeat for the following compound: O=[N+]([O-])c1nccn1CCCN(Cc1cccc(C(F)(F)F)c1)Cc1cccc(C(F)(F)F)c1
### Response rule met

* * *

Field: selectivity ratio. Provide a value for each of the compounds that follow.
- Assay Explanation: Selectivity index, ratio of IC50 for rat L6 cells to IC50 for Leishmania donovani MHOM-ET-67/L82
- Type: toxicity, cell-based
- Condition Info: L6 cells versus Leishmania donovani MHOM-ET-67/L82, read-out: Ratio IC50
Numbers only.

Solved cases below.
O=[N+]([O-])c1nccn1CCCCNc1nc(-c2ccccc2)nc(Cl)c1-c1ccccc1 | 1
Cl.O=[N+]([O-])c1ncn(CCCN(Cc2ccc3ccc(Cl)cc3n2)Cc2ccc3ccc(Cl)cc3n2)n1 | 7
Cl.O=[N+]([O-])c1ncn(CCCNc2nc(-c3ccccc3)nc3ccccc23)n1 | 10

### Prompt What measured selectivity ratio goes with Cl.O=[N+]([O-])c1ncn(CCCN(Cc2ccc3cc(Br)ccc3n2)Cc2ccc3cc(Br)ccc3n2)n1 ?
### Response 5

* * *

- Test system: Trypanosoma brucei brucei
- Assay Explanation: Antitrypanosomal activity against blood-stream Trypanosoma brucei brucei expressing type 1 nitroreductase after 3 days by alamar blue assay in absence of tetracycline
- Type: functional, organism-based
- Condition Info: 72 h
Labelling field: enter condition met if recorded IC50 is less than 3000 nM. Enter condition not met if it equals or exceeds that cut-off.

// below: answered compounds
Cl.O=[N+]([O-])c1ncn(CCCN(Cc2ccc(C(F)(F)F)cc2)Cc2ccc(C(F)(F)F)cc2)n1 | condition met
Cl.O=[N+]([O-])c1ncn(CCCCNc2ccnc3cc(Cl)ccc23)n1 | condition met
Cl.O=[N+]([O-])c1ncn(CCCNc2nc(-c3ccccc3)nc3ccccc23)n1 | condition not met
Cl.O=[N+]([O-])c1ncn(CCCNCc2cc(C(F)(F)F)cc(C(F)(F)F)c2)n1 | condition not met

### Prompt Report whether reported IC50 is lower than 3000 nM (strictly) for CC1CS(=O)(=O)CCN1/N=C/c1ccc([N+](=O)[O-])o1 (configuration not stated)
### Response condition met

### Prompt And Cl.Cl.O=[N+]([O-])c1ncn(CCCN2CCN(c3ccc(C(F)(F)F)cc3)CC2)n1 ?
### Response condition met

### Prompt Please do the same for Cl.O=[N+]([O-])c1nccn1CCCNc1nc(-c2ccccc2)nc2ccccc12 as well.
### Response condition not met

* * *

- Assay Explanation: Selectivity index, ratio of IC50 for rat L6 cells to IC50 for Leishmania donovani MHOM-ET-67/L82
- Format: toxicity, cell-based
- Condition Info: L6 cells versus Leishmania donovani MHOM-ET-67/L82, read-out: Ratio IC50
Provide the reported selectivity ratio of each item.
Give bare numbers.

Cl.O=[N+]([O-])c1ncn(CCCNCc2ccc(C(F)(F)F)cc2)n1 | 1
O=[N+]([O-])c1nccn1CCCCNc1ccnc2cc(Cl)ccc12 | 2
COc1ccc2nc3cc(Cl)ccc3c(NCCCCn3cnc([N+](=O)[O-])n3)c2c1 | 1

### Prompt Given the compound Cl.O=[N+]([O-])c1ncn(CCCNc2c3ccccc3nc3ccccc23)n1 , what is its reported selectivity ratio?
### Response 1
